Test system: Staphylococcus epidermidis
Test: Antibacterial activity against Staphylococcus epidermidis ATCC 12228 after 24 hrs by broth dilution method
Format: functional
Conditions: ATCC 12228, 24 h
PROPERTY: MIC

| COMPOUND | MIC |
| --- | --- |
| O=C(CN1Cc2ccccc2C1=O)NC12CC3CC(CC(C3)C1)C2 | > 1540 µM |
| C=CS(=O)(=O)c1ccccc1 [(ETHENYLSULFONYL)BENZENE] | > 2960 µM |
| COC(=O)C12CC3CC(CC(N)(C3)C1)C2.Cl | > 2030 µM |

Input Cl.NC12CC3CC(CC(C3)C1)C2 [AMANTADINE HYDROCHLORIDE] . Output MIC: > 2660 µM
